# Test system: MS2 coat protein
# test: apparent KD of MS2 coat protein; designed switch direction (-1 OFF switch, 1 ON switch): 1; higher = weaker reporter binding
# test.settings: input ligand: microRNA oligo, concentration not stated
measure: apparent KD of MS2 coat protein (nM)
Quick reminder: number only, in nM, skip the unit.

{"sequence.code": "AGGCUCAGACGAGGAUAUGGUCAUGGCGCUUCGGCGCAUACAUGAGGAUCACCCAUGUAGGGUGAUCAGAAGGCGUCUGAGCCA [SSNG2/9-A1] (Eterna round: R96, puzzle: Same State NG 2)", "apparent KD of MS2 coat protein / nM": 255}
{"sequence.code": "UGAACCUUCACAGGAUAUCAUGCGAAAAUUGCGUGAGAAGGGUGGAUGUGGCGUUCAUAGUUGCACAUGAGGAUCACCCAUGUA [SameState NG1 #50] (Eterna round: R96, puzzle: Same State NG 1)", "apparent KD of MS2 coat protein / nM": 212}

Query sequence follows.
Ask: For the sequence AUCCUACAUGAGGAUCACCCAUGUGACGCCUCGAUAGGAUAUGCGUGUGCCUUGGCGCAUGCAGAAGGAUUGUUGC [JL Aveso mod 7] (Eterna round: R96, puzzle: Same State 1) , what apparent KD of MS2 coat protein is on record?
Result: 20.3

Hello, the source for this data is the supplement of paper PMC9170038, in case you need it.
